Target: Met(D1246N)(h) (Homo sapiens, UniProt P08581, D1228N)
Assay: Kinase Profiling Assay
Format: biochemical
Conditions: 100 μM
Some sequences, each annotated with its measured % activity.

# Polymer sequence, Test system, % activity
rows = [
    ("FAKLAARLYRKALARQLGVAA [MMI-0300]", "Met(D1246N)(h) (Homo sapiens, UniProt P08581, D1228N)", "82%"),
    ("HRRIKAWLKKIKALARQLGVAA [MMI-0500]", "Met(D1246N)(h) (Homo sapiens, UniProt P08581, D1228N)", "90%"),
    ("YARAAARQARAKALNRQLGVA [MMI-0200]", "Met(D1246N)(h) (Homo sapiens, UniProt P08581, D1228N)", "149%"),
]

We now examine a further sequence.
Ask: Need % activity, item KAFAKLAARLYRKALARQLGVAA [MMI-0400]
Reply: 31%

###

Target: PKCε(h) (Homo sapiens, UniProt Q02156)
Sequence (Q02156 1-737): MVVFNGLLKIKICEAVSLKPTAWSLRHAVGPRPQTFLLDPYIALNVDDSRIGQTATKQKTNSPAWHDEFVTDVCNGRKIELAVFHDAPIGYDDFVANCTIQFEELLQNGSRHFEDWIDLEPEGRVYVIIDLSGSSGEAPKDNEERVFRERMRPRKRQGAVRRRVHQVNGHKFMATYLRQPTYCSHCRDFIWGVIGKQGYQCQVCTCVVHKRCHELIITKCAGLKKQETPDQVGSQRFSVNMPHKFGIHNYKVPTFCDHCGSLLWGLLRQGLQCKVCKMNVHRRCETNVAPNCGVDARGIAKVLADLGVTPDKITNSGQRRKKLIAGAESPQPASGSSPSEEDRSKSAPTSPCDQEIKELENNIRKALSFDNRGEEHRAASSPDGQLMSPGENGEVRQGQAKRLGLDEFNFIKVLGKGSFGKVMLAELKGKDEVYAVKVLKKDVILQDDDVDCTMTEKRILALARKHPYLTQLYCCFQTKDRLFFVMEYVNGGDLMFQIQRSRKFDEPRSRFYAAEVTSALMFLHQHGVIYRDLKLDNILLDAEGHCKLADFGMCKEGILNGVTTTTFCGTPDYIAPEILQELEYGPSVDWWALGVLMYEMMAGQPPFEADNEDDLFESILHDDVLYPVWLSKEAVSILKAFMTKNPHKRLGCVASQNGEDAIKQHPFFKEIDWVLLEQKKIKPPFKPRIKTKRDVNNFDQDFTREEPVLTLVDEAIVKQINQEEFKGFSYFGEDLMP
Assay: Kinase Profiling Assay
Format: biochemical
Conditions: 100 μM
Below: a set of entries, each annotated with reported % activity.
Please respond with the number in % and leave the unit unwritten.

Examples with their reported % activity follow.
# Polymer sequence, Test system, % activity, %
rows = [
    ("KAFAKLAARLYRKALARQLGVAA [MMI-0400]", "PKCε(h) (Homo sapiens, UniProt Q02156)", 59),
    ("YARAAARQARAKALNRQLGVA [MMI-0200]", "PKCε(h) (Homo sapiens, UniProt Q02156)", 98),
    ("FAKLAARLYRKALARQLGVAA [MMI-0300]", "PKCε(h) (Homo sapiens, UniProt Q02156)", 79),
]

Ask: Which value of % activity has been reported for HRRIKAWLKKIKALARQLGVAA [MMI-0500] in the records?
Reply: 23
